- System: Mycobacterium tuberculosis Erdman (autoluminescent)
- Test Name: AUC25, normalised area under dose response up to IC25 (three-drug combination) (fraction (0-1)); higher = more potent at low dose
- Applied Conditions: in vitro model: acidic pH 5.7; time point: terminal (~4-5 doublings, model-specific)
Reported Endpoint: AUC25

CC(=O)NC[C@H]1CN(c2ccc(N3CCOCC3)c(F)c2)C(=O)O1 [linezolid] + COc1c(N2C[C@@H]3CCCN[C@@H]3C2)c(F)cc2c(=O)c(C(=O)O)cn(C3CC3)c12 [moxifloxacin] + CO[C@H]1/C=C/O[C@@]2(C)Oc3c(C)c(O)c4c(O)c(c(/C=N/N5CCN(C6CCCC6)CC5)c(O)c4c3C2=O)NC(=O)/C(C)=C\C=C\[C@H](C)[C@H](O)[C@@H](C)[C@@H](O)[C@@H](C)[C@H](OC(C)=O)[C@@H]1C [rifapentine]	0.0558
NNC(=O)c1ccncc1 [isoniazid] + CC(=O)NC[C@H]1CN(c2ccc(N3CCOCC3)c(F)c2)C(=O)O1 [linezolid] + CO[C@H]1/C=C/O[C@@]2(C)Oc3c(C)c(O)c4c(O)c(c(/C=N/N5CCN(C)CC5)c(O)c4c3C2=O)NC(=O)/C(C)=C\C=C\[C@H](C)[C@H](O)[C@@H](C)[C@@H](O)[C@@H](C)[C@H](OC(C)=O)[C@@H]1C [rifampicin]	0.0682
CC[C@@H](CO)NCCN[C@@H](CC)CO [ethambutol] + NC(=O)c1cnccn1 [pyrazinamide] + CO[C@H]1/C=C/O[C@@]2(C)Oc3c(C)c(O)c4c(O)c(c(/C=N/N5CCN(C)CC5)c(O)c4c3C2=O)NC(=O)/C(C)=C\C=C\[C@H](C)[C@H](O)[C@@H](C)[C@@H](O)[C@@H](C)[C@H](OC(C)=O)[C@@H]1C [rifampicin]	0.0348
CC[C@@H](CO)NCCN[C@@H](CC)CO [ethambutol] + NC(=O)c1cnccn1 [pyrazinamide] + CO[C@H]1/C=C/O[C@@]2(C)Oc3c(C)c(O)c4c(O)c(c(/C=N/N5CCN(C6CCCC6)CC5)c(O)c4c3C2=O)NC(=O)/C(C)=C\C=C\[C@H](C)[C@H](O)[C@@H](C)[C@@H](O)[C@@H](C)[C@H](OC(C)=O)[C@@H]1C [rifapentine]	0.0652

As a next step, examine the molecule that follows.
Query :: What reported AUC25 corresponds to CC[C@@H](CO)NCCN[C@@H](CC)CO [ethambutol] + CO[C@H]1/C=C/O[C@@]2(C)Oc3c(C)c(O)c4c(O)c(c(/C=N/N5CCN(C6CCCC6)CC5)c(O)c4c3C2=O)NC(=O)/C(C)=C\C=C\[C@H](C)[C@H](O)[C@@H](C)[C@@H](O)[C@@H](C)[C@H](OC(C)=O)[C@@H]1C [rifapentine] + CO[C@H]1/C=C/O[C@@]2(C)Oc3c(C)c(O)c4c(O)c(c(/C=N/N5CCN(C)CC5)c(O)c4c3C2=O)NC(=O)/C(C)=C\C=C\[C@H](C)[C@H](O)[C@@H](C)[C@@H](O)[C@@H](C)[C@H](OC(C)=O)[C@@H]1C [rifampicin] on Mycobacterium tuberculosis Erdman (autoluminescent)?
Result :: 0.0407

src = the supplement of paper PMC8617591
